Sourced from the supplement of paper PMC7877785

test: self-splicing fitness, log relative to wild type (ln ratio); higher = more splicing; Tetrahymena group I intron in knt gene, E. coli kanamycin selection, DiMSum; sequences stand for … in CUCUCU…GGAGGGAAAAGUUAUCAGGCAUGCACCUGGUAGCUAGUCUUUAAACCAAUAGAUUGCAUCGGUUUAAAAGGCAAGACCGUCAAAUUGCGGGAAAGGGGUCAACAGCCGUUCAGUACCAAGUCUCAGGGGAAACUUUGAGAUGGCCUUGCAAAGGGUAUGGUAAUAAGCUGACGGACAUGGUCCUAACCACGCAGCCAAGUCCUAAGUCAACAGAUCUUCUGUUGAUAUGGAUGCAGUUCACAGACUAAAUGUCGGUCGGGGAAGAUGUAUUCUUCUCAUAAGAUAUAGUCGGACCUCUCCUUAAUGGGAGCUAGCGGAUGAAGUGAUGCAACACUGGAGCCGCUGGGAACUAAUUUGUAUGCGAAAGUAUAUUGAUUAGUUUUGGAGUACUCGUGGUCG; details: 30 °C;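 further: selection with 25 µg/mL kanamycin versus none on LB agar overnight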
We begin with a simple list: items and their reported self-splicing fitness (ln).
Please reply with the number alone, leaving off any unit.

Examples from the recorded data:
UCCUAGCAAUAUUACGGUGU
-1.71
UGCCAGCAAUAUUACGUUGA
-2.21
ACAAAGCAAUAUUACGCUCC
-1.29
GUCCAGCAAUAUUACGGGUA
-0.764
GCGGAGCAAUAUUACGACGG
-2.27

Measured self-splicing fitness (ln), ACUCAGCAAUAUUACGUUCC : -2.15

Measured self-splicing fitness (ln), UUAUAGCAAUAUUACGGCCG : -0.763

Measured self-splicing fitness (ln), GAUAAGCAAUAUUACGUUCU : -1.8
